B1: VPS39 (parent)
chain: QQVKCIITEEKVCMVCKKKIGNSA

- Variants of: B1
- ASSAY_DETAILS: protein stability index of a GFP-peptide fusion (GPS, HEK-293T) (PSI 1-6); higher = more stable;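 further: lentivirally expressed fusions sorted by FACS into six bins by GFP to DsRed ratio, PSI derived from sequencing read proportions per bin multiplied by bin number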
- SETTINGS: c terminus: a fixed tail appended
# protein stability index >= 3 gives Y, anything below gives N

Use these answered entries as a reference point.
>  <MUTANT_NAME>
T8R

>  <QUALITATIVE_LABEL>
N

$$$$
>  <MUTANT_NAME>
I7Q

>  <QUALITATIVE_LABEL>
N

$$$$
>  <MUTANT_NAME>
K17C

>  <QUALITATIVE_LABEL>
Y

$$$$
>  <MUTANT_NAME>
C5I

>  <QUALITATIVE_LABEL>
N

$$$$
>  <MUTANT_NAME>
Q2Y

>  <QUALITATIVE_LABEL>
N

$$$$
>  <MUTANT_NAME>
K4V

>  <QUALITATIVE_LABEL>
N

$$$$

input: Would you say M14I shows protein stability index at minimum 3?
output: N

input: Would you say I6P shows protein stability index at minimum 3?
output: Y

input: Would you say G21T shows protein stability index at minimum 3?
output: N

input: Would you say I6W shows protein stability index at minimum 3?
output: N

input: Would you say K18W shows protein stability index at minimum 3?
output: N

input: Would you say C16P shows protein stability index at minimum 3?
output: Y

Cited source: the supplement of paper PMC10567573
